tested on: PD-1; assay: Western blot analysis of PD-1 protein level in 4T1 cells stably expressing PD-1; type: cell-based, murine; parameters: key: † 3+ Scale with + least and +++ most; † 3+ Scale with + least and +++ most; † 3+ Scale with + least and +++ most; details: 5 μM, 24 h, 4T1-PD1 cells
QUANTITY KIND: Decrease in PD1 protein level by western blot at 24 h at 5 μM

Some compounds with recorded Decrease in PD1 protein level by western blot at 24 h at 5 μM:
>>> val("O=C(Nc1ccc([N+](=O)[O-])cc1Cl)c1cc(Cl)ccc1O [Compound 10, niclosamide]")
"+++"
>>> val("O=[N+]([O-])c1ccc2[nH]c(-c3cc(Cl)ccc3O)nc2c1")
"++"
>>> val("O=[N+]([O-])c1ccc2[nH]c(-c3cc(F)ccc3O)nc2c1")
"++"
>>> val("CCCCCCCC(=O)Oc1ccc(Cl)cc1C(=O)Nc1ccc([N+](=O)[O-])cc1Cl")
"++"
>>> val("CC[C@@H](C(=O)[C@@H](C)[C@@H](O)[C@H](C)CCc1ccc(C)c(O)c1C(=O)O)[C@H]1O[C@](CC)([C@H]2CC[C@](O)(CC)[C@H](C)O2)C[C@@H]1C")
"++"

// next entry
Input line: Need Decrease in PD1 protein level by western blot at 24 h at 5 μM of CC(=O)Oc1ccccc1C(=O)Nc1ncc([N+](=O)[O-])s1 [Compound 12, nitazoxanide] , thanks.
Output line: +

Source: patent US10562864B2
